- Test system: DLD-1 human colon carcinoma
- test name: tumor cell growth in culture, DLD-1 human colon carcinoma
- Type: cell-based
- condition details: testing at Brown University
pIC50: −log10 of the molar value.

>  <input smiles>
Cc1cn([C@H]2C[C@H](O)[C@@H](CO)O2)c(=O)n(C=CC=O)c1=O

>  <pIC50>
5.30

$$$$
